Molecular target: Dual specificity mitogen-activated protein kinase kinase 6 (Homo sapiens)
Sequence (whole entry): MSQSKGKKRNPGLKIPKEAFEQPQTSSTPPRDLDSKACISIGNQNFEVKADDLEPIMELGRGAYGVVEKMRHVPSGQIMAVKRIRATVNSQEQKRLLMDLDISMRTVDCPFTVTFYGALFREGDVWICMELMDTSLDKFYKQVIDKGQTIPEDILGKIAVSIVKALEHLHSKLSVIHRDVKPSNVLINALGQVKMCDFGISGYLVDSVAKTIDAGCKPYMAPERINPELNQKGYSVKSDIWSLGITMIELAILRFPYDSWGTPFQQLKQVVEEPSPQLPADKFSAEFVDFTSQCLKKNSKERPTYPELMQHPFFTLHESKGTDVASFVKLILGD
Conditions: at 10 µM
reported_property: residual activity (%)
Record the value in %, omitting the unit from your answer.

GET /values?readout=residual activity&item= O=C1NC(=O)/C(=C\c2ccc3nccnc3c2)S1
85

Data request, read-out residual activity, for Nc1ccc2ncnc(NCCc3ccc(Oc4ccccc4)cc3)c2c1
82

Which value of residual activity has been reported for CO[C@H]1[C@@H](OC)C[C@H](C)[C@@H](OC)C2=CC(=O)C=C(NC(=O)/C(C)=C/C=C/[C@H](OC)[C@@H](OC(N)=O)/C(C)=C/[C@@H]1C)C2=O in the records?
99

Given the entry CO[C@H]1C[C@@H]2CC[C@@H](C)[C@@](O)(O2)C(=O)C(=O)N2CCCC[C@H]2C(=O)O[C@H]([C@H](C)C[C@@H]2CC[C@@H](O)[C@H](OC)C2)CC(=O)[C@H](C)/C=C(\C)[C@@H](O)[C@@H](OC)C(=O)[C@H](C)C[C@H](C)/C=C/C=C/C=C/1C , report its measured residual activity.
82

Need residual activity of CC(C)n1cnc2/c(=N/c3cccc(Cl)c3)nc(NCCO)[nH]c21 , thanks.
49

# query: residual activity of entry O=C1Nc2cc(Br)ccc2/C1=C1/Nc2ccccc2/C1=N\O
65

Query: residual activity; subject: O=c1cc(-c2cccc3c2Sc2ccccc2S3)oc(N2CCOCC2)c1
78

Name the reported residual activity value associated with the compound Cn1cc(/C=C2\C(=O)Nc3ccc(S(N)(=O)=O)cc32)c2ccccc21
85

// residual activity lookup, key: COc1cccc(-c2cc(=O)c3ccccc3o2)c1N
77

Look up residual activity: Nc1cccc(-c2cc3c(Oc4cccc(O)c4)ncnc3[nH]2)c1
20

For the compound shown here, CC[n+]1c(/C=C/N(C)c2ccccc2)n(-c2ccccc2)c2ccc(-c3nc4ccccc4s3)cc21 , give the reported residual activity.
133

// residual activity lookup, key: N#C/C(=C(\N)Sc1ccc(N)cc1)c1ccccc1C(F)(F)F
83

For the compound shown here, Oc1c2ccccc2c2c3c(cccc13)N=N2 , give the reported residual activity.
13

Dear colleague, I am looking for the recorded residual activity of the following compound: Cc1nc(-c2ccccc2)c(-c2ccncc2)o1
37

Give the measured residual activity of COc1ccc(C(=O)Nc2sc3c(c2C(N)=O)CCCC3)cc1OC .
120

Recorded residual activity for COc1ccc(CNc2nc(N(CCO)CCO)nc3c2ncn3C(C)C)cc1 , please?
100

Which value of residual activity has been reported for CNc1cc2c(Nc3cccc(Br)c3)ncnc2cn1 in the records?
79

Given the compound O=C1NC(=O)c2cc(Nc3ccc(F)cc3)c(Nc3ccc(F)cc3)cc21 , what is its reported residual activity?
58

I would be grateful if you could share the reported residual activity for c1ccc(-c2n[nH]cc2-c2ccnc3ccccc23)nc1 .
48

Suppose we examine the compound O=C1NC(=O)/C(=C/c2ccc3c(c2)OC(F)(F)O3)S1 ; what residual activity value has been reported?
93

For the compound shown here, Oc1n[nH]c2nnc(-c3c(-c4ccccc4)nn4ccccc34)cc12 , give the reported residual activity.
89

Fill in the blank: the reported residual activity of COc1cc2ncnc(Nc3ccc(O)c(Br)c3)c2cc1OC is ____.
27

Please report the recorded residual activity for COc1ccc(OC)c2c(=S)c3ccccc3[nH]c12 .
96

For the compound shown here, Ic1cccc(CSc2nnc(-c3ccncc3)o2)c1 , give the reported residual activity.
77

Please report the recorded residual activity for COc1cc2ncnc(N3CCN(C(=O)Nc4ccc(Oc5ccccc5)cc4)CC3)c2cc1OC .
81

Reported residual activity for CC(=O)O/N=C1\C(=C2\C(=O)Nc3cc(Br)ccc32)Nc2ccccc21 : what is it?
76

Give the measured residual activity of O=C(Nc1cccc(Nc2nccc(Nc3cccc(C(F)(F)F)c3)n2)c1)C1CC1 .
51

# query: residual activity of entry Nc1nc(Nc2ccc(S(N)(=O)=O)cc2)nn1C(=S)Nc1c(F)cccc1F
20

Sample O=C(Nc1cccc(Nc2cc(Nc3cccc(C(F)(F)F)c3)ncn2)c1)C1CC1 — what was its residual activity?
66

Source: ChEMBL document CHEMBL2218924
